- assayed.target: Recombinant human cathepsin S (CatS) (Homo sapiens)
- Construct: made in house
- measurement.description: Recombinant human cathepsin S (CatS) fluorogenic substrate inhibition assay
- Assay type: biochemical
- experimental.context: average of results obtained; substrate Z-Valine-Valine-Arginine-AMC 10 μM, pH 5.0; read-out: CatS IC50
So basically, if IC50 comes in under 200 nM it's yes (1), and if it's 200 nM or more it's no (0).

Dear reviewer, please state whether CS(=O)(=O)N1CCc2c(c(-c3ccc(C(F)(F)F)c(CNS(=O)(=O)c4ccccc4)c3)nn2CC(O)CN2CCCC2)C1 (stereo not drawn) has IC50 strictly beneath 200 nM.
no (0)

Dear reviewer, please state whether CC1CCCN1CC(O)Cn1nc(-c2ccc(C(F)(F)F)c(CNC(=O)c3ccc(F)cc3)c2)c2c1CCN(S(C)(=O)=O)C2 (stereo not drawn) has IC50 strictly beneath 200 nM.
no (0)

Dear reviewer, please state whether CC(C)=CC(=O)NCc1cc(-c2nn(CC(O)CN3CCC(C(C)(C)C)CC3)c3c2CN(S(C)(=O)=O)CC3)ccc1C(F)(F)F (stereo not drawn) has IC50 strictly beneath 200 nM.
yes (1)

Dear reviewer, please state whether CS(=O)(=O)N1CCc2c(c(-c3ccc(C(F)(F)F)c(C(=O)NCc4ccccc4)c3)nn2CC(O)CN2CCCC2)C1 (stereo not drawn) has IC50 strictly beneath 200 nM.
no (0)

Dear reviewer, please state whether CS(=O)(=O)N1CCc2c(c(-c3ccc(C(F)(F)F)c(CNC(=O)c4ccc(F)cc4)c3)nn2CC(O)CN2CCC(CCO)CC2)C1 (stereo not drawn) has IC50 strictly beneath 200 nM.
yes (1)

Dear reviewer, please state whether CS(=O)(=O)N1CCc2c(c(-c3ccc(C(F)(F)F)c(CNC(=O)c4ccccc4)c3)nn2CC(O)CN2CCC3(CCNC3=O)CC2)C1 (stereo not drawn) has IC50 strictly beneath 200 nM.
yes (1)

###

- assayed.target: Recombinant human cathepsin S (CatS) (Homo sapiens, UniProt P25774)
- Construct: made in house
- Sequence (P25774 115-331): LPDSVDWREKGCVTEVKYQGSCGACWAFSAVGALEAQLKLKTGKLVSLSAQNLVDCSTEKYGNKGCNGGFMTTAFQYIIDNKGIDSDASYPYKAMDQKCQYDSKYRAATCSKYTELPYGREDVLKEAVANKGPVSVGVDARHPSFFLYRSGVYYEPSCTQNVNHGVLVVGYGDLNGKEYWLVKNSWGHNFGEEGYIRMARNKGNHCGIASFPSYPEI
- measurement.description: Recombinant human cathepsin S (CatS) fluorogenic substrate inhibition assay
- Assay type: biochemical
- experimental.context: average of results obtained; substrate Z-Valine-Valine-Arginine-AMC 10 μM, pH 5.0; read-out: CatS IC50
Please go through the items and note down their IC50.
All answers are understood in nM, so give the number only.

Entry CN(C)C1CCN(CCCn2nc(-c3ccc(C(F)(F)F)c(CNC(=O)c4ccc(F)cc4)c3)c3c2CCN(S(C)(=O)=O)C3)C1 (stereo not drawn) [Example 5] ; IC50 = 150

Entry CC(C)CC(=O)NCc1cc(-c2nn(CC(O)CN3CCCC3)c3c2CN(S(C)(=O)=O)CC3)ccc1C(F)(F)F (stereo not drawn) [Example 281] ; IC50 = 370

Entry CC(=O)NC1CCN(CC(Cn2nc(-c3ccc(Cl)c(CNC(=O)c4ccc(F)cc4)c3)c3c2CCN(S(C)(=O)=O)C3)OC(C)=O)CC1 (stereo not drawn) [Example 80] ; IC50 = 100

###

- assayed.target: Recombinant human cathepsin S (CatS) (Homo sapiens, UniProt P25774)
- Construct: made in house
- measurement.description: Recombinant human cathepsin S (CatS) fluorogenic substrate inhibition assay
- Assay type: biochemical
- experimental.context: average of results obtained; substrate Z-Valine-Valine-Arginine-AMC 10 μM, pH 5.0; read-out: CatS IC50
Class key for IC50 values: lo: < 300 nM; mid: ≥ 300 nM and < 1000 nM; hi: ≥ 1000 nM

Hello team, could you let me know which band the following molecule falls into: CS(=O)(=O)N1CCc2c(c(-c3ccc(Cl)c(COC(=O)c4ccc(F)cc4)c3)nn2CCCN2CCCC2)C1 [Example 3]
hi

Hello team, could you let me know which band the following molecule falls into: CS(=O)(=O)N1CCc2c(c(-c3ccc(C(F)(F)F)c(CNC(=O)C4CCCCCC4)c3)nn2CC(O)CN2CCC3(CCNC3=O)CC2)C1 (centres unmarked) [Example 167]
mid

Hello team, could you let me know which band the following molecule falls into: CNC(=O)CCc1cc(-c2nn(CCCN3CCOCC3)c3c2CN(S(C)(=O)=O)CC3)ccc1Cl [Example 294]
hi

Hello team, could you let me know which band the following molecule falls into: CC(=O)NC1CCN(CC(O)Cn2nc(-c3ccc(C(F)(F)F)c(CNC(=O)CC(C)C)c3)c3c2CCN(S(C)(=O)=O)C3)CC1 (centres unmarked) [Example 250]
lo

Hello team, could you let me know which band the following molecule falls into: CC(C)=CC(=O)NCc1cc(-c2nn(CC(O)CN3CCOCC3)c3c2CN(S(C)(=O)=O)CC3)ccc1C(F)(F)F (centres unmarked) [Example 153]
lo

Hello team, could you let me know which band the following molecule falls into: CC(C)=CC(=O)NCc1cc(-c2nn(CC(O)CN3CCCC(CN(C)C)C3)c3c2CN(S(C)(=O)=O)CC3)ccc1C(F)(F)F (centres unmarked) [Example 271]
mid

Hello team, could you let me know which band the following molecule falls into: CCOC(=O)C1CCN(CC(O)Cn2nc(-c3ccc(C(F)(F)F)c(CNC(=O)c4ccc(F)cc4)c3)c3c2CCN(S(C)(=O)=O)C3)CC1 (centres unmarked) [Example 103]
lo

Hello team, could you let me know which band the following molecule falls into: CS(=O)(=O)N1CCc2c(c(-c3ccc(Cl)c(CNC(=O)/C=C/c4ccccc4)c3)nn2CCCN2CCCC2)C1 [Example 219]
mid

Hello team, could you let me know which band the following molecule falls into: CS(=O)(=O)N1CCc2c(c(-c3ccc(C(F)(F)F)c(CNC(=O)C4CCCCCC4)c3)nn2CC(O)CN2CCCC2)C1 (centres unmarked) [Example 160]
mid

Hello team, could you let me know which band the following molecule falls into: CS(=O)(=O)N1CCc2c(c(-c3ccc(C(F)(F)F)c(CNc4ncccn4)c3)nn2CC(O)CN2CCCC2)C1 (centres unmarked) [Example 65]
hi

Hello team, could you let me know which band the following molecule falls into: CS(=O)(=O)N1CCc2c(c(-c3ccc(Cl)c(COCc4ccccc4)c3)nn2CCCN2CCCC2)C1 [Example 71]
hi

Hello team, could you let me know which band the following molecule falls into: CS(=O)(=O)N1CCc2c(c(-c3ccc(Cl)c(CCC(=O)Nc4ccccc4)c3)nn2CCCN2CCOCC2)C1 [Example 292]
hi

Hello team, could you let me know which band the following molecule falls into: CC(C)CC(=O)NCc1cc(-c2nn(CC(O)CN3CCC(C(C)(C)C)CC3)c3c2CN(C(=O)CO)CC3)ccc1C(F)(F)F (centres unmarked) [Example 298]
lo

###

- assayed.target: Recombinant human cathepsin S (CatS) (Homo sapiens, UniProt P25774)
- Construct: made in house
- measurement.description: Recombinant human cathepsin S (CatS) fluorogenic substrate inhibition assay
- Assay type: biochemical
- experimental.context: average of results obtained; substrate Z-Valine-Valine-Arginine-AMC 10 μM, pH 5.0; read-out: CatS IC50
quantity: pIC50
// pIC50: -log10(molar conc.)

Entry CC(=O)NC1CCN(CC(O)Cn2nc(-c3ccc(Cl)c(CNC(=O)c4ccc(F)cc4)c3)c3c2CCN(S(C)(=O)=O)C3)CC1 (stereo not drawn) ; pIC50 = 7.40

Entry CC1CCN(CC(O)Cn2nc(-c3ccc(C(F)(F)F)c(CNC(=O)c4ccc(F)cc4)c3)c3c2CCN(S(C)(=O)=O)C3)CC1 (stereo not drawn) ; pIC50 = 7.00

Entry CN(C)C1CCN(CC(O)Cn2nc(-c3ccc(C(F)(F)F)c(CNC(=O)c4ccc(F)cc4)c3)c3c2CCN(S(C)(=O)=O)C3)C1 (stereo not drawn) ; pIC50 = 6.44

###

Please go through the items and note down their log10(IC50).
- assayed.target: Recombinant human cathepsin S (CatS) (Homo sapiens, UniProt P25774)
- Construct: made in house
- measurement.description: Recombinant human cathepsin S (CatS) fluorogenic substrate inhibition assay
- Type: biochemical
- experimental.context: average of results obtained; substrate Z-Valine-Valine-Arginine-AMC 10 μM, pH 5.0; read-out: CatS IC50
- Procedure: Recombinant human cathepsin S (CatS) was expressed in the baculovirus system and purified in one step with a thiopropyl-sepharose column. […] The assay is run in 150 mM sodium acetate pH 5.0 containing 1.5 mM DTT and 150 mM NaCl. […] Measurements are taken every min for 20 min. The rate is calculated from the slope of the increase in fluorescence and the percent inhibition is calculated from this.
Log10 applied to IC50; unit prior to transform: nM.

Entry CS(=O)(=O)N1CCc2c(c(-c3ccc(C(F)(F)F)c(CNC(=O)c4ccccc4F)c3)nn2CC(O)CN2CCCC2)C1 (stereo not shown) ; log10(IC50) = 2.57

Entry "CS(=O)(=O)N1CCc2c(c(-c3ccc(Cl)c(CNC(=O)c4ccncc4)c3)nn2CCCN2CCCC2)C1" ; log10(IC50) = 2.95

Entry CS(=O)(=O)NCc1cc(-c2nn(CC(O)CN3CCCC3)c3c2CN(S(C)(=O)=O)CC3)ccc1C(F)(F)F (stereo not shown) ; log10(IC50) = 3.81

Entry "CS(=O)(=O)N1CCc2c(c(-c3ccc(Cl)c(CNS(=O)(=O)c4ccc(Cl)c(Cl)c4)c3)nn2CCCN2CCCC2)C1" ; log10(IC50) = 3.73

Entry CC(C)CC(=O)NCc1cc(-c2nn(CC(O)CN3CCC(NS(C)(=O)=O)CC3)c3c2CN(S(C)(=O)=O)CC3)ccc1C(F)(F)F (stereo not shown) ; log10(IC50) = 2.20

Entry CC(=O)N(C)C1CCN(CC(O)Cn2nc(-c3ccc(C(F)(F)F)c(CNC(=O)CC(C)C)c3)c3c2CCN(S(C)(=O)=O)C3)C1 (stereo not shown) ; log10(IC50) = 2.38

Entry CS(=O)(=O)N1CCc2c(c(-c3ccc(C(F)(F)F)c(CNC(=O)c4ccc(F)c(F)c4)c3)nn2CC(O)CN2CCCC2)C1 (stereo not shown) ; log10(IC50) = 2.32

Entry CC(C)=CC(=O)NCc1cc(-c2nn(CC(O)CN3CCC(F)(F)CC3)c3c2CN(S(C)(=O)=O)CC3)ccc1C(F)(F)F (stereo not shown) ; log10(IC50) = 2.04

Entry CS(=O)(=O)N1CCc2c(c(-c3ccc(Cl)c(CNC(=O)c4ccc(F)cc4)c3)nn2CC(O)CN2CCCC(O)C2)C1 (stereo not shown) ; log10(IC50) = 2.48

Entry CC(=O)NC1CCN(CC(O)Cn2nc(-c3ccc(C(F)(F)F)c(CNC(=O)c4ccc(F)cc4)c3)c3c2CCN(S(C)(=O)=O)C3)C1 (stereo not shown) ; log10(IC50) = 2.23

Entry CN(C)c1ccccc1C(=O)NCc1cc(-c2nn(CC(O)CN3CCCC3)c3c2CN(S(C)(=O)=O)CC3)ccc1C(F)(F)F (stereo not shown) ; log10(IC50) = 2.98

Entry CS(=O)(=O)N1CCc2c(c(-c3ccc(C(F)(F)F)c(CNC(=O)c4ccc(O)cc4)c3)nn2CC(O)CN2CCC3(CCNC3=O)CC2)C1 (stereo not shown) ; log10(IC50) = 1.70

Entry CC(C)CC(=O)NCc1cc(-c2nn(CC(O)CN3CCC(O)CC3)c3c2CN(S(C)(=O)=O)CC3)ccc1C(F)(F)F (stereo not shown) ; log10(IC50) = 2.43
